# assay-system: HER-2 (Homo sapiens)
# Construct: endogenous in cells; host or cells: Calu-3 (ATCC HTB-55)
# Sequence (P04626 23-1255): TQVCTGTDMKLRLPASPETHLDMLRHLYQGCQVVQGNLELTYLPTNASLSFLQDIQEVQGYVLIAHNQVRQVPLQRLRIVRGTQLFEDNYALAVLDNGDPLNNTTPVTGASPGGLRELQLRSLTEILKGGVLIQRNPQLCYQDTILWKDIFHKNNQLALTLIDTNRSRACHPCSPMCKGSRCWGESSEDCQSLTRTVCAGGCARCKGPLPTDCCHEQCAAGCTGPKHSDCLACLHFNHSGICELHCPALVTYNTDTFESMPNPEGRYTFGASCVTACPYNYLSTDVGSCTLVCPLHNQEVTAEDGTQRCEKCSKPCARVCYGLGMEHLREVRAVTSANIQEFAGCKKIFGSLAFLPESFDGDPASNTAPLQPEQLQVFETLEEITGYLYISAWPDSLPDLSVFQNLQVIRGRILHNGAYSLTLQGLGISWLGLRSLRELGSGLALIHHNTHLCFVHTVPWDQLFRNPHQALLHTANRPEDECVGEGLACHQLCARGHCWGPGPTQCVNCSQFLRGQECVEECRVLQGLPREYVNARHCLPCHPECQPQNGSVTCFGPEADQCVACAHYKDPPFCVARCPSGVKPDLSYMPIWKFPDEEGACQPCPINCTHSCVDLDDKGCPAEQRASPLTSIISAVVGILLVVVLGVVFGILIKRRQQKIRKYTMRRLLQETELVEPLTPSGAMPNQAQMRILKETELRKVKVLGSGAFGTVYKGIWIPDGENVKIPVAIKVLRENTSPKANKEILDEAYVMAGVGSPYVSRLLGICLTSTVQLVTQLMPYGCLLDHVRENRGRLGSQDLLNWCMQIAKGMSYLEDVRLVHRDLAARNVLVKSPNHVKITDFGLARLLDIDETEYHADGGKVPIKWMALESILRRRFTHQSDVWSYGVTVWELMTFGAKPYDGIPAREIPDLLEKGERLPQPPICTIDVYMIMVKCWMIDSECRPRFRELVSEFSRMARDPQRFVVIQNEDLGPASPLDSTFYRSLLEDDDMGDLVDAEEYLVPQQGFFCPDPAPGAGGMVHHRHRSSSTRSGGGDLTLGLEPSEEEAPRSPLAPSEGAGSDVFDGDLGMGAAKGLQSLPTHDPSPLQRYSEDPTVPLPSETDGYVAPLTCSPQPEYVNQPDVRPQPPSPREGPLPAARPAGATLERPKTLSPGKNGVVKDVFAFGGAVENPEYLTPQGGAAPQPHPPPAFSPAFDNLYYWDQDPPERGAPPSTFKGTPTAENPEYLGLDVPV
# method-notes: Inhibition of HER-2 phosphorylation in Calu-3 tumor cell line
# Type: cell-based
# condition-parameters: Calu-3 cells, compound 1 μM, 16 h, pY 1248 in HER-2, percentage of DMSO control; read-out: Percent inhibition of HER2-phosphorylation (compound concentration 1 μM)
property: inhibition at 1 µM

**Query** Let me know recorded inhibition at 1 µM for O=C(Nc1ccc2c(c1)OC(F)(F)O2)c1coc(COc2ccc(CCCCn3ccnn3)cc2)n1 [Example 9] , thanks.
**Result** 55 to 70%

**Query** Let me know recorded inhibition at 1 µM for Cc1ccc(NC(=O)c2coc(COc3ccc(CCCCn4ccnn4)cc3)n2)cc1F [Example 36] , thanks.
**Result** 70 to 80%

**Query** Let me know recorded inhibition at 1 µM for CC(C)(C)c1ccc(C(=O)Nc2nc(COc3ccc(CCCCn4ccnn4)cc3)cs2)cc1 [Example 52-21] , thanks.
**Result** > 80%

**Query** Let me know recorded inhibition at 1 µM for O=C(Nc1ccc(Cl)cc1F)c1coc(COc2ccc(CCCCn3ccnn3)cc2)n1 [Example 14] , thanks.
**Result** 72%

**Query** Let me know recorded inhibition at 1 µM for FC(F)(F)c1ccc(C=Cc2nc(COc3ccc(CCCCn4ccnn4)cc3)co2)cc1 [reference compound, reference compound] , thanks.
**Result** 52%

**Query** Let me know recorded inhibition at 1 µM for CN(C(=O)c1coc(COc2ccc(CCCCn3ccnn3)cc2)n1)c1ccc(Cl)cc1 [Example 2] , thanks.
**Result** 55 to 70%

**Query** Let me know recorded inhibition at 1 µM for O=C(Nc1ccc(F)cc1)c1coc(COc2ccc(CCCCn3ccnn3)cc2)n1 [Example 31] , thanks.
**Result** 55 to 70%

**Query** Let me know recorded inhibition at 1 µM for O=C(Nc1ccc(OC(F)(F)F)cc1)c1nc(COc2ccc(CCCCn3ccnn3)cc2)cs1 [Example 39] , thanks.
**Result** 87%

**Query** Let me know recorded inhibition at 1 µM for O=C(Nc1ccc(C(F)(F)F)cc1)c1csc(COc2ccc(CCCCn3ccnn3)cc2)n1 [Example 41] , thanks.
**Result** > 80%

**Query** Let me know recorded inhibition at 1 µM for O=C(Nc1ccc(OC(F)F)cc1)c1coc(COc2ccc(CCCCn3ccnn3)cc2)n1 [Example 22] , thanks.
**Result** 55 to 70%

**Query** Let me know recorded inhibition at 1 µM for O=C(Nc1nc(COc2ccc(CCCCn3ccnn3)cc2)cs1)c1ccc(Cl)cc1 [Example 52-5] , thanks.
**Result** 70 to 80%

**Query** Let me know recorded inhibition at 1 µM for O=C(Nc1ccc(C(F)(F)F)cc1)c1coc(COc2ccc(CCCCn3ccnn3)cc2)n1 [Example 13] , thanks.
**Result** > 80%

**Query** Let me know recorded inhibition at 1 µM for O=C(Nc1ccc(OC(F)(F)F)cc1)c1csc(COc2ccc(CCCCn3ccnn3)cc2)n1 [Example 43] , thanks.
**Result** > 80%

**Query** Let me know recorded inhibition at 1 µM for COc1ccc(NC(=O)c2coc(COc3ccc(CCCCn4ccnn4)cc3)n2)cc1 [Example 37] , thanks.
**Result** 70 to 80%

**Query** Let me know recorded inhibition at 1 µM for O=C(Nc1ccc(S(F)(F)(F)(F)F)cc1)c1nc(COc2ccc(CCCCn3ccnn3)cc2)cs1 [Example 40] , thanks.
**Result** 70 to 80%

# credit: patent US20060116407A1
